TESTED SYSTEM: T1, extracellular domain (ECD) of recombinant human Sortilin with a C-terminal HIS tag (ECD-huSortilin-HIS) (human, UniProt Q99523 78-755)
T1 construct: Bought (R&D Systems); also called human sortilin-ECD
T1 sequence: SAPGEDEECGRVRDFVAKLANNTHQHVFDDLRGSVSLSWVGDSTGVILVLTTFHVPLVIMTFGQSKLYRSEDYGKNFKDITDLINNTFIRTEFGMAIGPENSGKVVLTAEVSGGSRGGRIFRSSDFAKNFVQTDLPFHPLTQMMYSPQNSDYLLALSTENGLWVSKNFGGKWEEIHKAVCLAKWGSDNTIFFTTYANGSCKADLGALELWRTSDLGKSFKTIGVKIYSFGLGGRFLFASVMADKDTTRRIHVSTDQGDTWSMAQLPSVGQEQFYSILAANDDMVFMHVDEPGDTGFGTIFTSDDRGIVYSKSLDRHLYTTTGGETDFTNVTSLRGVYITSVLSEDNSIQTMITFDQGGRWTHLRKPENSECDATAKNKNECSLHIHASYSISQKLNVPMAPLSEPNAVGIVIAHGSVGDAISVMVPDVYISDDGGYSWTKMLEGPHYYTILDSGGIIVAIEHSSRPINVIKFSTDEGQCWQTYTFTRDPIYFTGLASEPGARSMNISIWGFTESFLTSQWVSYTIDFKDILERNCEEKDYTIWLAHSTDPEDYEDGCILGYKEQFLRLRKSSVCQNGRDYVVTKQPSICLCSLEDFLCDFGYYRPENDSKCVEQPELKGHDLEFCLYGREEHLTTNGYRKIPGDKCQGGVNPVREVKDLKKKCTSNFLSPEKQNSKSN
EXPERIMENT DESCRIPTION: SPR (Biacore T200), mAb captured on anti-mouse chip, sortilin as analyte, global 1:1 fit
ENDPOINT LABEL: koff (s⁻¹)
Give your result in s⁻¹ as a bare value.

Below: 5 binders and their reported koff.
BINDER	UNIT ABBREV	RESULT
mouse monoclonal antibody 11M14 (antibody, V domains shown, also called murine 11M14; m11M14) VH: EVQLVESGGDLVKPGGSLKLSCAASGFTFNIYGMSWVRQTPDKRLEWVATISSGGIYTYYPDILKGRFTISRDNAKNTLYLQMSSLKSEDTAMYYCARHPGGAMDYWGQGTSVTVSS VL: DIQMTQSPASLSVSVGETVTITCRVSENIYSNLAWYQQKQGKSPHLLVYAATNLADGVPSRFSGSGSGTQYSLKINSLQSEDFGSYYCQHFWGTPPWTFGGGTKLEIK	s⁻¹	0.000569
mouse monoclonal antibody 2P22 (antibody, mouse IgG2b, V domains shown) VH: EVQLVESGGDLVKPGGSLKLSCAASGFTFSIYGMSWVRQTPDKKLEWVAAISSGGIYTYYPDSVKGRFTISRDNAKNTLYLQMSSLKSADTAMYYCTRNDYDWFAYWGQGTLVTVSA VL: DIQMTQSPSSLSASLGERVSLTCRASQDIGSSLNWLQQEPDGTIKRLIYATSSLDSGVPKRFSGSRSGSDYSLTISSLESEDFVDYYCLQYASSPYTFGGGTKLEIK	s⁻¹	0.000237
mouse monoclonal antibody 8H24 (antibody, V domains shown, also called murine 8H24; m8H24) VH: QAYLQQSGTELVRPGASVKMSCKASGYTFTSYSMHWVKQTPRQGLEWIGAIYPGNDATSYNQKFKGKATLTVDKSSSTAYMQLSSLTSEDSAVYFCAREGYYGSSFEAWFASWGQGTLVTVSA VL: DVLMTQTPLSLPVSLGDQASISCRSSQSIVHSNGNTYLEWYLQKPGQSPKLLIYKVSNRFSGVPDRFSGSGSGTDFTLKISRVEAEDLGVYYCFQGSHVLPTFGGGTKLEIK	s⁻¹	0.00044
mouse monoclonal antibody 2C14 (antibody, mouse IgG1, V domains shown) VH: EVQLVESGGDLVKPGGSLKLSCAASGFTFNTHGMSWVRQTPDKSLEWVATISTGGFYTSYPDSVKGRFTISRDNAKNTLFLQMSSLKSEDTAMYYCAKSSSHWYFDVWGTGTTVTVSS VL: DILMTQSPSSMSVSLGDTVSITCHASQGISSNIGWLQQKPGKSFKGLIYHGTNLEDGVPSRFSGSGSGADYSLTISSLEYEDFADYYCVQYAHFPYTFGGGTKLEIK	s⁻¹	0.00245
mouse monoclonal antibody 5E20 (antibody, V domains shown, also called murine 5E20; m5E20) VH: EVQLVESGGDLVKPGGSLKLSCAAPGFTFSTYGMSWVRQTPDKRLEWVAIISSGGSYTYYSDTVKGRFTISRDNAKNTLYLQMSSLKSEDTAMYYCSRSSSHWYFDVWGTGTTVTVSS VL: DILMTQSPSSMSVSLGDTVSITCHASQGISSNIGWLQQKPGKSFKGLIYHGTNLKDGVPSRFSGSGSGADFSLTISSLESEDFADYFCVQYAQFPYTFGGGTKLEKR	s⁻¹	0.000139

Using the record for mouse monoclonal antibody 2F18 (antibody, mouse IgG1, V domains shown) VH: EVQLVESGGDLVKPGGSLKLSCAASGFTFNIYGMSWVRQTPDKRLEWVATISTGGIYTYYPDSVKGRFTISRDNAKNTLYLQMSSLKSEDTAMYYCARHPVGALDYWGQGTSVTVSS VL: DIQVTQSPASLSVSVGETVTITCRASENIYSNLAWYQQKQGKSPHLLVYTATTLADGVPSRFSGSGSGTQYSLKINSLQSEDFGSYYCQHFWGTPPWTFGGGTKLEIK , report its koff.
0.000162

Using the record for mouse monoclonal antibody 6B15 (antibody, mouse IgG1, V domains shown) VH: EVQLVESGGDLVKPGGSLKLSCAAPGFTFSTYGMSWVRQTPDKRLEWVAIISSGGSYTYYSDTVKGRFTISRDNAKNTLNLQMSSLKSEDTAMYFCSRSSSHWYFDVWGTGTTVTVSS VL: DILMTQFPSSMSVSLGDTVSITCHASQGISSNIGWLQQKPGKSFKGLIYHGTNLKDGVPSRFSGSGSGTDFSLTISSLESEDFADYYCVQYAQFPYTFGGGTKLEKR , report its koff.
0.00013
